Task for the reader: assign each of the following compounds its reported S.I (EP4/EP2).
- tgt: human EP4 receptor (Homo sapiens, UniProt P35408)
- Sequence (P35408 whole entry): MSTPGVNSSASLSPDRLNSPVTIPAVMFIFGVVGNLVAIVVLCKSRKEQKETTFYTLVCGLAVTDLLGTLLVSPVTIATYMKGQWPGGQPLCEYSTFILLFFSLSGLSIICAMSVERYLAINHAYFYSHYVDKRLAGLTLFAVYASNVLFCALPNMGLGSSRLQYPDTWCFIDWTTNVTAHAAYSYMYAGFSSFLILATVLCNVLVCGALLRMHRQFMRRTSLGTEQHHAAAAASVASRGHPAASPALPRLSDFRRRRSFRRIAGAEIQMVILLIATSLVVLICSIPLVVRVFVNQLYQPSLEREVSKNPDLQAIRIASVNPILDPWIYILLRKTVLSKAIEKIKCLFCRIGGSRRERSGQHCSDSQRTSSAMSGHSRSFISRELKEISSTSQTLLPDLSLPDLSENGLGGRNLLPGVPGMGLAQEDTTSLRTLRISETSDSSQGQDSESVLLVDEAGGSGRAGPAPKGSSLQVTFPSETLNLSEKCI
- protocol-text: Cell-based cAMP TR-FRET assay on EP4 (agonist PGE2)
- condition-details: selectivity index EP4 KB/EP2 KB, fold

Please supply the value of reported S.I (EP4/EP2) for the item Cc1cccc(Nc2ncc(C(=O)NCCc3c(C)[nH]c4ccccc34)cn2)n1 [Compound 20e] >1500

Read off the recorded S.I (EP4/EP2) for Cc1cc(C)nc(Nc2ncc(C(=O)NCCc3c(C)[nH]c4ccc(Cl)cc34)cn2)c1 [Compound 24b] >350

Entry Cc1[nH]c2ccccc2c1CCNC(=O)c1cnc(Nc2cc(F)ccn2)nc1 [Compound 20c] needs its S.I (EP4/EP2) filled in; supply it. >1500

Tell me S.I (EP4/EP2) reported for Cc1[nH]c2ccccc2c1CCNC(=O)c1cnc(Nc2cccnc2)nc1 [Compound 20q] >1200

Give reported S.I (EP4/EP2) value for COc1ccccc1-c1ncc(C(=O)NCCc2c(C)[nH]c3ccccc23)cn1 [Compound 14a] 517
